Each entry below lists one item and its recorded Percent Effect value.
# Test System: Sialic acid-binding Ig-like lectin 9 (Homo sapiens) (UniProt Q9Y336)
# Sequence (Q9Y336 whole entry): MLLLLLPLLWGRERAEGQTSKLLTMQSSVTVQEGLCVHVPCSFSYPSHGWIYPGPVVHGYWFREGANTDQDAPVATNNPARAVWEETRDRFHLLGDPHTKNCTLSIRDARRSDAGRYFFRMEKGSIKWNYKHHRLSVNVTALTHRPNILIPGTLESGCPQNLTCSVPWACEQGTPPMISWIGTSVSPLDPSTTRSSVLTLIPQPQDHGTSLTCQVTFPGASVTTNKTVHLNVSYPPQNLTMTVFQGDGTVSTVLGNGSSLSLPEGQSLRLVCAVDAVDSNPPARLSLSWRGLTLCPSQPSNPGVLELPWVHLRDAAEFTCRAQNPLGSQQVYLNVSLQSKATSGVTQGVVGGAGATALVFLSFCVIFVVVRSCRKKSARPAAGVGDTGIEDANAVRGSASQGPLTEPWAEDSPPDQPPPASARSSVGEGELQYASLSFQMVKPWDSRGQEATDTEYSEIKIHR
# Assay: Hs-Siglec9 ALPHAscreen SOP 20170721
# Design: scale not given: direction of the effect not stated beside the values
# Experimental Parameters: 10 µM
Recorded Metric: Percent Effect (%)

Compound | Test System | Val
Cc1cc(C[S+]([O-])CC(=O)NCC(C)C)no1 (stereo unspecified) | Sialic acid-binding Ig-like lectin 9 (Homo sapiens) (UniProt Q9Y336) | -1.61
CN1CCCCC1c1ncc2c(n1)CCN(Cc1ccccc1Cl)C2 (stereo unspecified) | Sialic acid-binding Ig-like lectin 9 (Homo sapiens) (UniProt Q9Y336) | 2.83
O=C(CO)N1CCC(c2cncc(-c3cccc(Cl)c3)n2)CC1 | Sialic acid-binding Ig-like lectin 9 (Homo sapiens) (UniProt Q9Y336) | -7.86
CN(Cc1ccsc1)C(=O)CN1CCCC1Cn1cccn1 (stereo unspecified) | Sialic acid-binding Ig-like lectin 9 (Homo sapiens) (UniProt Q9Y336) | -4.38
Cc1nn(C)c(N2CCOCC2)c1CNCc1ccnc(N(C)C)c1 | Sialic acid-binding Ig-like lectin 9 (Homo sapiens) (UniProt Q9Y336) | -0.165
c1ccc(-c2cc(CN3CCC(c4ccn[nH]4)CC3)on2)cc1 | Sialic acid-binding Ig-like lectin 9 (Homo sapiens) (UniProt Q9Y336) | 8.25
CC1CCN(S(=O)(=O)c2cccn(CC(=O)NC3CCCC3)c2=O)CC1 | Sialic acid-binding Ig-like lectin 9 (Homo sapiens) (UniProt Q9Y336) | -2
O=C(CCNC(=O)c1ccccc1)Nc1ccncc1 | Sialic acid-binding Ig-like lectin 9 (Homo sapiens) (UniProt Q9Y336) | -0.508
Cc1cc(CN2CCN(c3ccc4nncn4n3)C(C)C2)no1 (stereo unspecified) | Sialic acid-binding Ig-like lectin 9 (Homo sapiens) (UniProt Q9Y336) | 14.4
O=C(NCCN1CCCCCC1=O)c1n[nH]c(=O)c2ccccc12 | Sialic acid-binding Ig-like lectin 9 (Homo sapiens) (UniProt Q9Y336) | -3.89
O=C(c1ccno1)N1CC[C@@H]2O[C@@H](COCCN3CCCC3)CC[C@@H]21 | Sialic acid-binding Ig-like lectin 9 (Homo sapiens) (UniProt Q9Y336) | -3.29

* * *

# Test System: Arginase-2, mitochondrial (Homo sapiens) (UniProt P78540)
# Sequence (whole entry): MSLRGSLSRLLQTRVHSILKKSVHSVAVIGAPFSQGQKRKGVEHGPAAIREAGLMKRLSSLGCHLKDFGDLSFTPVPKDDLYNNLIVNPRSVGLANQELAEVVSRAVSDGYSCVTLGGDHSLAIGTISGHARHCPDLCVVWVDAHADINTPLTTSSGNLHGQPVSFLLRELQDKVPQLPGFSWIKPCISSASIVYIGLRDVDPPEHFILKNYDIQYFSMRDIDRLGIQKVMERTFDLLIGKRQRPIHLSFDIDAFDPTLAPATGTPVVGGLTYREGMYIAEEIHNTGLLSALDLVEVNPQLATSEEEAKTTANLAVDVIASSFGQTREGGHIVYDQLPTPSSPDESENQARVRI
# Assay: in vitro enzyme assay to detect the production of urea directly proportional to the activity of Arginase II; also: in the data most compounds retested in dose-response had high values
# Assay type: functional
# Parameters: scale not given: direction of the effect not stated beside the values
# Experimental Parameters: 33.3 µM

Compound | Percent Effect, %
c1coc(-c2noc(CN3CC(n4cccn4)C3)n2)c1 | 1.05
CCC(CO)NC(=O)c1ccc2ccc(N(C)CC3CC3)n2c1 (centres undefined) | 0.457
O=C(NC1CC1)N1CCc2ncnc(-c3ccncc3)c2CC1 | -55.4
CC(=O)Nc1nc(C(=O)Nc2ccc(N3CCCCC3)nc2)cs1 | -1.5
Cc1nc(N2CCN(C(=O)c3ccccc3)CC2)c2c(n1)c(C)nn2C | -12.8
Cc1ccc(C(O)CNCc2c(C(C)C)nn(C)c2N(C)C)cc1 (centres undefined) | -3.56
Cc1ccoc1C(=O)N1CC[C@H]2OCC[C@@]2(COCc2ccncc2)C1 | 7.1
NC(=O)c1nc(COc2ccc3c(c2)OCO3)no1 | -7.22
CS(=O)(=O)NC[C@@H]1OC[C@H]2CN(C(=O)c3ccc[nH]3)CC[C@H]21 | -44.3
CCOc1ccc(-n2nnc(C(=O)O)c2-c2ccccn2)cc1 | 0
CCc1cnc(CN(C)C2CCN(CCc3ccccn3)C2)o1 (centres undefined) | 3.97
COCC(c1cccc(C(F)(F)F)c1)N(C)C(=O)c1cc(C)n[nH]1 (centres undefined) | 2.68
O=c1c2ccccc2nc2n1CCN(Cc1cccs1)CC2 | -4.41
COc1ncccc1NC(=O)NC1CCOc2ccccc21 (centres undefined) | -4.62
CC(=O)NCCC1CCCCN1S(=O)(=O)c1cccc(C#N)c1 (centres undefined) | -2
Cc1cnn(CCNCc2csc(-c3ccc4c(c3)OCO4)n2)c1 | 2.68
CCCc1nc(CN2CCOC(CNc3cccnn3)C2)cs1 (centres undefined) | -5.61
CC[C@@]1(O)CCN(C(=O)c2ccc(SC)cc2)C[C@H]1O | -0.442
CCN1CCN(c2nc(C(C)C)nc3c(C)nn(CC)c23)CC1 | -5.52
O=C(O)c1cc2c(nc1O)CC(c1cccc(Cl)c1)CC2=O (centres undefined) | -6.16
CC(C)NC(=O)[C@@H]1C[C@H](N)CN1C(=O)c1cc2c([nH]c1=O)CCCC2 | 1.77
CC(=O)Nc1nc(CN2CCCC2c2cnn(C)c2)cs1 (centres undefined) | -6.46
Cc1cc(CN2CCN(c3ccc4nncn4n3)C(C)C2)no1 (centres undefined) | 4.63
CN(CCOc1cccc(CN)c1)C1CCOCC1 | -5.24

* * *

Each entry below lists one item and its recorded Percent Effect value.
# Test System: Sialic acid-binding Ig-like lectin 9 (Homo sapiens) (UniProt Q9Y336)
# Assay: Hs-Siglec9 ALPHAscreen SOP 20170721
# Set-up: scale not given: direction of the effect not stated beside the values
# Experimental Parameters: 10 µM

Molecule | Test System | Percent Effect (%)
CCC(=O)Nc1ccc(C(C)NC(=O)COCCOC)cc1 (centres undefined) | Sialic acid-binding Ig-like lectin 9 (Homo sapiens) (UniProt Q9Y336) | -5.07
CC(C)(C(=O)NCC(N)=O)c1ccccc1F | Sialic acid-binding Ig-like lectin 9 (Homo sapiens) (UniProt Q9Y336) | -6.27
Cc1ccc(C2CSCCN2C(=O)c2ccsc2)o1 (centres undefined) | Sialic acid-binding Ig-like lectin 9 (Homo sapiens) (UniProt Q9Y336) | 3.24
c1ccc(N2CCCC3(COCCN(c4nccs4)C3)C2)nc1 (centres undefined) | Sialic acid-binding Ig-like lectin 9 (Homo sapiens) (UniProt Q9Y336) | 16.4
Cc1noc(CN2Cc3ccccc3CC2c2nnc(C)o2)n1 (centres undefined) | Sialic acid-binding Ig-like lectin 9 (Homo sapiens) (UniProt Q9Y336) | 12.5
O=C(COCC1CC1)N1CCCC(n2ccnc2)C1 (centres undefined) | Sialic acid-binding Ig-like lectin 9 (Homo sapiens) (UniProt Q9Y336) | -0.338
COc1ccc(C(=O)N2CCCC(CNS(C)(=O)=O)C2)cc1F (centres undefined) | Sialic acid-binding Ig-like lectin 9 (Homo sapiens) (UniProt Q9Y336) | 6.16
Cc1cnc2c(S(=O)(=O)NCC3CCS(=O)(=O)C3)cccc2c1 (centres undefined) | Sialic acid-binding Ig-like lectin 9 (Homo sapiens) (UniProt Q9Y336) | -5
O=C(C1CCN(c2snc3ccccc23)CC1)N1CCCCCC1 | Sialic acid-binding Ig-like lectin 9 (Homo sapiens) (UniProt Q9Y336) | -3.46
CCS(=O)(=O)N1CCO[C@H]2[C@H](OCC3CCCC3)CC[C@@H]21 | Sialic acid-binding Ig-like lectin 9 (Homo sapiens) (UniProt Q9Y336) | 0.841
O=C([C@H]1CCCO1)N1CCCC2(CCN(Cc3ccncc3)C2=O)C1 (some centres undefined) | Sialic acid-binding Ig-like lectin 9 (Homo sapiens) (UniProt Q9Y336) | -8.92
Cc1cccc(C(=O)NCCCN2CCN(c3ccccc3)CC2)c1 | Sialic acid-binding Ig-like lectin 9 (Homo sapiens) (UniProt Q9Y336) | -11.3
Cc1noc([C@H]2C[C@H]3OCC[C@H]3N(Cc3ccc4c(c3)OCO4)C2)n1 | Sialic acid-binding Ig-like lectin 9 (Homo sapiens) (UniProt Q9Y336) | -6.24
O=C([C@H]1COC[C@H]2CN(C3CCCC3)C[C@H]21)N1CCCCO1 | Sialic acid-binding Ig-like lectin 9 (Homo sapiens) (UniProt Q9Y336) | 5.11
Cc1ccsc1CN(CCN(C)C)Cc1ccccn1 | Sialic acid-binding Ig-like lectin 9 (Homo sapiens) (UniProt Q9Y336) | 21.2
O=C(c1ccc2c(c1)OCO2)N1CCC[C@]2(C[C@H](OCC3CC3)CO2)C1 | Sialic acid-binding Ig-like lectin 9 (Homo sapiens) (UniProt Q9Y336) | -11.4
CN(C)S(=O)(=O)N1CCC(Oc2ccc(C#N)cn2)CC1 | Sialic acid-binding Ig-like lectin 9 (Homo sapiens) (UniProt Q9Y336) | 0.477
CN(C)C(=O)CN1C[C@@H]2CC[C@H](C1)N(C(=O)CCn1cncn1)C2 | Sialic acid-binding Ig-like lectin 9 (Homo sapiens) (UniProt Q9Y336) | 3.26
CCn1nccc1CNC(=O)C(C)n1cc2c(n1)c(C)nn2C (centres undefined) | Sialic acid-binding Ig-like lectin 9 (Homo sapiens) (UniProt Q9Y336) | 0.228
CC1c2ncc(Cn3cncn3)n2CCN1C1CCOCC1 (centres undefined) | Sialic acid-binding Ig-like lectin 9 (Homo sapiens) (UniProt Q9Y336) | -3.4
c1ccc(-c2nc(CN3CCCC(Cn4cncn4)C3)no2)cc1 (centres undefined) | Sialic acid-binding Ig-like lectin 9 (Homo sapiens) (UniProt Q9Y336) | -3.34
COc1ccc(Cl)cc1C(=O)N1CCOC2(CNCCOC2)C1 (centres undefined) | Sialic acid-binding Ig-like lectin 9 (Homo sapiens) (UniProt Q9Y336) | -0.752
O=C(NCCc1cccc(F)c1)NCC(O)c1cccc(F)c1 (centres undefined) | Sialic acid-binding Ig-like lectin 9 (Homo sapiens) (UniProt Q9Y336) | 6.95
O=C(NCc1ccccc1CN1CCC(O)CC1)Nc1cccnc1 | Sialic acid-binding Ig-like lectin 9 (Homo sapiens) (UniProt Q9Y336) | 2.18

Origin of the recorded values: ChEMBL document CHEMBL3988442
